Entry source: patent US20250368649A1

System: A549 cells
Test Method Notes: Inhibition of KRas-mediated phosphorylation of ERK (Cisbio HTRF pERK), A549 cells
Assay type: cell-based
Cond: Homo sapiens, A549, 3 h, 3 hr compound incubation, Cisbio pERK HTRF
Measured Property: IC50 (nM)

Molecule: CCc1c(F)ccc2cc(O)cc(N3CCc4c(nc(OC[C@@]56CCCN5C[C@H](F)C6)nc4N4CCCn5nc(C(=O)NCCOC)cc5C4)C3)c12
Target Entity: A549 cells
IC50 / nM: 20

[a] CCc1c(F)ccc2cc(O)cc(N3CCc4c(nc(OC[C@@]56CCCN5C[C@H](F)C6)nc4N4CCCn5nc(C(=O)N6CC7COCC6C7)cc5C4)C3)c12 (stereo partly shown)
[b] CCc1c(F)ccc2cc(O)cc(N3CCc4c(nc(OC[C@@]56CCCN5C[C@H](F)C6)nc4N4CCCn5nc(C(=O)N(C)C)nc5C4)C3)c12
Lower value of IC50 belongs to which: a or b ? Mark your answer with the label of the selected entry.
b
(b: 3 nM, a: 16 nM)
